settings: in isopropanol, 303.15 K
measurement label: solubility (mole fraction)

Name the recorded solubility (mole fraction) for O=S(=O)([O-])c1cccc2c(S(=O)(=O)[O-])cccc12.[Na+].[Na+] .
6.45e-05

###

details: in ethanol, 283.15 K
measurement label: solubility (mole fraction)
Reply briefly: the number, and no unit.

Name the recorded solubility (mole fraction) for O=S(=O)([O-])c1cccc2c(S(=O)(=O)[O-])cccc12.[Na+].[Na+] .
0.000107

###

conditions: in methanol, 313.15 K
measurement label: solubility (mole fraction)

Name the recorded solubility (mole fraction) for O=S(=O)([O-])c1cccc2c(S(=O)(=O)[O-])cccc12.[Na+].[Na+] .
0.00027
